# target_or_system: Vitamin D3 receptor (Homo sapiens, UniProt P11473)
# Sequence (P11473 whole entry, the tested form may be a part): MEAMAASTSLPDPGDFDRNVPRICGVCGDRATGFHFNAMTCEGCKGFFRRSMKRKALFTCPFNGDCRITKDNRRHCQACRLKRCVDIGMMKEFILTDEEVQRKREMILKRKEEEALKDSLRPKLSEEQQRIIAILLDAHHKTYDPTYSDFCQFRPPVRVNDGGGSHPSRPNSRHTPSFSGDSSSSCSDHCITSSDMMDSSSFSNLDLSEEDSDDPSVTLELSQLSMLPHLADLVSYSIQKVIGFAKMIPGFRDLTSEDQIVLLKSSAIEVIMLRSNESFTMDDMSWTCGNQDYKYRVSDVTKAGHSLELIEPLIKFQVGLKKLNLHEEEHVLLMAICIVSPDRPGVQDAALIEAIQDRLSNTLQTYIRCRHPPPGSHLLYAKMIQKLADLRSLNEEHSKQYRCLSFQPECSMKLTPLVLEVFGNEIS
# test_description: Antagonist activity against VDR-LBD (unknown origin) expressed in Escherichia coli assessed as inhibition of VDR agonist LG190178-induced SRC2-3 coactivator peptide recruitment after 30 mins by fluorescence polarization assay
pIC50: −log10 of the molar value.
measurement_kind: pIC50

• C=C1/C(=C\C=C2/CCC[C@]3(C)[C@@H]([C@H](C)CC(=O)O)CC[C@@H]23)C[C@@H](O)C[C@@H]1O = 5.64
• C[C@H](CCC(=O)O)[C@H]1CC[C@H]2[C@@H]3CC[C@@H]4C[C@H](O[C@@H]5O[C@H](C(=O)O)[C@@H](O)[C@H](O)[C@H]5O)CC[C@]4(C)[C@H]3CC[C@]12C = 4.50
• C[C@H](CCC(=O)NCCS(=O)(=O)O)[C@H]1CC[C@H]2[C@@H]3CC[C@@H]4C[C@H](O)CC[C@]4(C)[C@H]3CC[C@]12C [TAUROLITHOCHOLIC ACID] = 4.84
• C[C@H](CCC(=O)O)[C@H]1CC[C@H]2[C@@H]3CC[C@@H]4C[C@H](OS(=O)(=O)O)CC[C@]4(C)[C@H]3CC[C@]12C = 4.63

----------
# test_description: Cytotoxicity against HEK293T cells assessed as reduction in cell viability after 18 hrs by CellTiter-Glo luminescence assay
# Format: cell-based, HEK-293T
# applied_conditions: human, read-out: LD50
measurement_kind: CC50 at 18 h

• C[C@H](CCC(=O)NCCS(=O)(=O)O)[C@H]1CC[C@H]2[C@@H]3CC[C@@H]4C[C@H](O)CC[C@]4(C)[C@H]3CC[C@]12C [TAUROLITHOCHOLIC ACID] = > 150 µM
• C[C@H](CCC(=O)O)[C@H]1CC[C@H]2[C@@H]3CC[C@@H]4C[C@H](O)CC[C@]4(C)[C@H]3C[C@H](O)[C@]12C [DEOXYCHOLIC ACID] = > 150 µM
• C=C1/C(=C\C=C2/CCC[C@]3(C)[C@@H]([C@H](C)CC(=O)O)CC[C@@H]23)C[C@@H](O)C[C@@H]1O = > 100 µM
• C[C@H](CCC(=O)O)[C@H]1CC[C@H]2[C@@H]3[C@H](O)C[C@@H]4C[C@H](O)CC[C@]4(C)[C@H]3CC[C@]12C [CHENODIOL] = > 150 µM
• CC(=O)O[C@@H]1CC[C@@]2(C)[C@H](CC[C@@H]3[C@@H]2CC[C@]2(C)[C@@H]([C@H](C)CCC(=O)O)CC[C@@H]32)C1 = > 50 µM
• C[C@H](CCC(=O)O)[C@H]1CC[C@H]2[C@@H]3[C@@H](O)C[C@@H]4C[C@H](O)CC[C@]4(C)[C@H]3CC[C@]12C [URSODIOL] = > 150 µM
• C[C@H](CCC(=O)O)[C@H]1CC[C@H]2[C@@H]3C[C@H](O)[C@@H]4C[C@H](O)CC[C@]4(C)[C@H]3CC[C@]12C [HYODEOXYCHOLIC_ACID] = > 150 µM
• C[C@H](CCC(=O)O)[C@H]1CC[C@H]2[C@@H]3CC[C@@H]4C[C@H](O)CC[C@]4(C)[C@H]3CC[C@]12C [LITHOCHOLIC ACID] = 55.9 µM

Data provenance is ChEMBL document CHEMBL3763103.
